- ASSAY SYSTEM: 5-lipoxygenase (Homo sapiens)
- Sequence (P09917 whole entry, species assumed): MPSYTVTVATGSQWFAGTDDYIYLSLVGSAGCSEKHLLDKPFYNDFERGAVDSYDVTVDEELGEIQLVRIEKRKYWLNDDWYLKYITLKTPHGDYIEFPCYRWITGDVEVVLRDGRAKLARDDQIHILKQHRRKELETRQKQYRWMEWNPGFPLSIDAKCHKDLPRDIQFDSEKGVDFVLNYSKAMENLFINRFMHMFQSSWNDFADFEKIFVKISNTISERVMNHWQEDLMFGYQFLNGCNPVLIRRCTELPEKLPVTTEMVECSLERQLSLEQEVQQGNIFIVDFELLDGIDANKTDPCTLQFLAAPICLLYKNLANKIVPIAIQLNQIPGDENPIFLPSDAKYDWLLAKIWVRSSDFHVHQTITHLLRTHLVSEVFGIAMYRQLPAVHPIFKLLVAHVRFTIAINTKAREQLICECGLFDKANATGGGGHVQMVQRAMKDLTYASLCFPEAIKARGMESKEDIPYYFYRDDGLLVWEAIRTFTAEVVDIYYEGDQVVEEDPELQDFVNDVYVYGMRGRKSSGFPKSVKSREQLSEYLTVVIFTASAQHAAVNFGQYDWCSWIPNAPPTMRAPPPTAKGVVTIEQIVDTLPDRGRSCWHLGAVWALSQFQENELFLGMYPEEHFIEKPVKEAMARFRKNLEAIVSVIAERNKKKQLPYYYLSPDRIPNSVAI
pIC50: −log10 of the molar value.
MEASURED PARAMETER: pIC50

q: // query pIC50 value for entry Br.O=c1cc(-c2ccccc2)oc2cc(OCC(O)CNCCc3ccc(O)c(O)c3)ccc12 (stereo not shown) [Example 14, Hydrobromide]
a: ~7.05
